EXPERIMENTAL_DETAILS: Selectivity index, ratio of IC50 for rat L6 cells to IC50 for Plasmodium falciparum K1
Format: toxicity, cell-based
MEASUREMENT_CONDITIONS: L6 cells, read-out: Ratio IC50
// returns Not met unless selectivity ratio is strictly below 3000, in which case Met

Please review the following examples before continuing.
Cl.Cl.N/C(=N\O)c1cccc(-c2cccc(-c3cccc(/C(N)=N\O)c3)c2)c1
Met
CO/N=C(/N)c1ccc(-c2cccc(-c3ccc(/C(N)=N\OC)cc3)c2)cc1.Cl.Cl
Met
c1cc(C2=NCCN2)cc(-c2cccc(-c3cccc(C4=NCCN4)c3)c2)c1
Met
CC1(C)CN=C(c2ccc(-c3cc(-c4ccc(C5=NCC(C)(C)CN5)cc4)cc([N+](=O)[O-])c3)cc2)NC1
Not met

Now examine the next entry.
# check: selectivity ratio < 3000 for `Cl.Cl.Cl.N=C(N)c1ccc(-c2cc(Cl)cc(-c3ccc(C(=N)N)cc3)c2)cc1`
Met

====

EXPERIMENTAL_DETAILS: Selectivity index, ratio of IC50 for rat L6 cells to IC50 for Trypanosoma brucei rhodesiense STIB900
Assay type: toxicity, cell-based
MEASUREMENT_CONDITIONS: L6 cells, read-out: Ratio IC50
RESULT_TYPE: selectivity ratio
Give the figure by itself; no unit, no explanation.

Cl.Cl.c1cc(-c2ccc(C3=NCCN3)cc2)cc(-c2ccc(C3=NCCN3)cc2)c1
37
c1cc(C2=NCCN2)cc(-c2cccc(-c3cccc(C4=NCCN4)c3)c2)c1
20
COc1cc(-c2cccc(C(=N)N)c2)cc(-c2cccc(C(=N)N)c2)c1.Cl.Cl
4700
Cl.Cl.N=C(N)c1cccc(-c2cccc(-c3cccc(C(=N)N)c3)c2)c1
2270
N=C(Nc1ccc(-c2cc(Cl)cc(-c3cccc(NC(=N)c4ccccc4)c3)c2)cc1)c1ccccc1
13
Cl.Cl.Cl.N=C(Nc1ccc(-c2cc(Cl)cc(-c3cccc(NC(=N)c4ccccn4)c3)c2)cc1)c1ccccn1
24
CN(C)CC(=O)O/N=C(\N)c1ccc(-c2cccc(-c3ccc(/C(N)=N\OC(=O)CN(C)C)cn3)c2)nc1
6
CO/N=C(\N)c1cccc(-c2cccc(-c3cccc(/C(N)=N\OC)c3)c2)c1.Cl.Cl
2

// below: selectivity ratio requested for another compound
Note selectivity ratio for the compound shown: `Cl.Cl.N=C(N)c1ccc(-c2cccc(-c3cccc(C(=N)N)c3)c2)cc1`
544

====

Property: MSD; scope: individual compounds
Tested on: Trypanosoma brucei rhodesiense
EXPERIMENTAL_DETAILS: Antiprotozoal activity against Trypanosoma brucei rhodesiense STIB900 infected in NMRI mouse assessed as host mean survival days at 5 mg/kg, ip qd for 4 days
Assay type: functional
MEASUREMENT_CONDITIONS: route intraperitoneal

Cl.Cl.N=C(N)c1ccc(-c2cccc(-c3ccc(C(=N)N)cc3)c2)cc1
>60 days
N=C(N)c1ccc(-c2ccc(-c3ccc(C(=N)N)cc3)o2)cc1
>46 days
Nc1nc(N)nc(Nc2ccc([As]3SCC(CO)S3)cc2)n1 (stereo not given)
>60 days
Cl.Cl.N=C(N)c1ccc(-c2cc(O)cc(-c3ccc(C(=N)N)cc3)c2)cc1
>41.25 days
Cl.Cl.N=C(N)c1ccc(-c2cccc(-c3ccc(C(=N)N)nc3)c2)cn1
>60 days
CC(=O)O.N=C(N)c1ccc(-c2cccc(-c3ccc(C(=N)N)cn3)c2)nc1
>60 days
COc1cc(-c2ccc(C(=N)N)cc2)cc(-c2ccc(C(=N)N)cc2)c1.Cl.Cl
>38 days
Cl.N=C(N)c1ccc(-c2cccc(-c3ccc(C(=N)N)cn3)c2)nc1
>60 days

Note MSD for the compound shown: `Cl.Cl.N=C(N)c1ccc(-c2cc(N)cc(-c3ccc(C(=N)N)cc3)c2)cc1`
>35 days

Note MSD for the compound shown: `N=C(N)c1ccc(OCCCCCOc2ccc(C(=N)N)cc2)cc1`
>38 days

====

EXPERIMENTAL_DETAILS: Selectivity index, ratio of IC50 for rat L6 cells to IC50 for Plasmodium falciparum K1
Type: toxicity, cell-based
MEASUREMENT_CONDITIONS: L6 cells, read-out: Ratio IC50
Property: selectivity ratio; scope: individual compounds

Note selectivity ratio for the compound shown: `Cl.Cl.N=C(N)c1ccc(-c2cc(-c3ccc(C(=N)N)cc3)cc([N+](=O)[O-])c2)cc1`
> 8380

Note selectivity ratio for the compound shown: `CC(C)NC(=N)c1cccc(-c2cccc(-c3cccc(C(=N)NC(C)C)c3)c2)c1`
> 4190

Note selectivity ratio for the compound shown: `CO/N=C(\N)c1ccc(-c2cccc(-c3ccc(/C(N)=N\OC)cn3)c2)nc1.Cl`
> 42

Note selectivity ratio for the compound shown: `CC(C)Oc1cc(NC(=N)c2ccccn2)ccc1-c1cc(Cl)cc(-c2ccccc2)c1`
< 1

Note selectivity ratio for the compound shown: `Cl.N=C(N)c1ccc(-c2cccc(-c3ccc(C(=N)N)cn3)c2)nc1`
> 3760

====

Property: selectivity ratio; scope: individual compounds
EXPERIMENTAL_DETAILS: Selectivity index, ratio of IC50 for rat L6 cells to IC50 for Trypanosoma brucei rhodesiense STIB900
Format: toxicity, cell-based
MEASUREMENT_CONDITIONS: L6 cells, read-out: Ratio IC50

Take a look at these entries with their results.
Cl.Cl.N=C(N)c1ccc(-c2cc(O)cc(-c3ccc(C(=N)N)cc3)c2)cc1
> 37500
Cl.N=C(N)c1ccc(-c2cccc(-c3ccc(C(=N)N)cn3)c2)nc1
> 8820

Note selectivity ratio for the compound shown: `Cl.Cl.N/C(=N/O)c1ccc(-c2cccc(-c3ccc(/C(N)=N\O)cc3)c2)cc1`
> 14

====

Property: selectivity ratio; scope: individual compounds
EXPERIMENTAL_DETAILS: Selectivity index, ratio of IC50 for rat L6 cells to IC50 for Trypanosoma cruzi Tulahuen C2C4
Format: toxicity, cell-based
MEASUREMENT_CONDITIONS: read-out: Ratio IC50

CC1(C)CN=C(c2ccc(-c3cccc(-c4ccc(C5=NCC(C)(C)CN5)cc4)c3)cc2)NC1
< 1
Cl.Cl.N=C(N)c1ccc(-c2cc(N)cc(-c3ccc(C(=N)N)cc3)c2)cc1
> 1
CO/N=C(\N)c1cccc(-c2cccc(-c3cccc(/C(N)=N\OC)c3)c2)c1.Cl.Cl
< 1

// below: selectivity ratio requested for another compound
Note selectivity ratio for the compound shown: `Cl.Cl.N=C(N)c1ccc(-c2cccc(-c3ccc(C(=N)N)nc3)c2)cn1`
< 1

====

EXPERIMENTAL_DETAILS: Selectivity index, ratio of IC50 for rat L6 cells to IC50 for Trypanosoma cruzi Tulahuen C2C4
Format: toxicity, cell-based
MEASUREMENT_CONDITIONS: read-out: Ratio IC50
RESULT_TYPE: selectivity ratio
Give the figure by itself; no unit, no explanation.

Take a look at these entries with their results.
Cl.Cl.N=C(N)c1ccc(-c2cccc(-c3cccc(C(=N)N)c3)c2)cc1
1
N=C(Nc1cccc(-c2cc(Cl)cc(-c3cccc(NC(=N)c4ccccc4)c3)c2)c1)c1ccccc1
2
O=C(Cn1ccnc1[N+](=O)[O-])NCc1ccccc1 [BENZNIDAZOLE]
115

Note selectivity ratio for the compound shown: `CC1(C)CN=C(c2cccc(-c3cccc(-c4cccc(C5=NCC(C)(C)CN5)c4)c3)c2)NC1`
1

====

Property: selectivity ratio; scope: individual compounds
EXPERIMENTAL_DETAILS: Selectivity index, ratio of IC50 for rat L6 cells to IC50 for Plasmodium falciparum K1
Type: toxicity, cell-based
MEASUREMENT_CONDITIONS: L6 cells, read-out: Ratio IC50

Cl.Cl.N=C(N)c1ccc(-c2cc(N)cc(-c3ccc(C(=N)N)cc3)c2)cc1
> 1100
N=C(N)c1cncc(-c2cccc(-c3cncc(C(=N)N)c3)c2)c1
> 2580
COc1cc(-c2cccc(C(=N)N)c2)cc(-c2cccc(C(=N)N)c2)c1.Cl.Cl
4960
Cl.Cl.N=C(N)c1cccc(-c2cccc(-c3cccc(C(=N)N)c3)c2)c1
3320
C[C@@H]1CC[C@H]2[C@@H](C)C(=O)O[C@@H]3O[C@@]4(C)CC[C@@H]1[C@]32OO4
34900

// below: selectivity ratio requested for another compound
Note selectivity ratio for the compound shown: `Cl.Cl.N=C(N)c1ccc(-c2cc(O)cc(-c3ccc(C(=N)N)cc3)c2)cc1`
> 3950

====

Property: selectivity ratio; scope: individual compounds
EXPERIMENTAL_DETAILS: Selectivity index, ratio of IC50 for rat L6 cells to IC50 for Trypanosoma brucei rhodesiense STIB900
Assay type: toxicity, cell-based
MEASUREMENT_CONDITIONS: L6 cells, read-out: Ratio IC50

Take a look at these entries with their results.
N=C(N)c1cncc(-c2cccc(-c3cncc(C(=N)N)c3)c2)c1
> 285
N=C(N)c1ccnc(-c2cccc(-c3cc(C(=N)N)ccn3)c2)c1
> 128
CO/N=C(\N)c1ccc(-c2cccc(-c3ccc(/C(N)=N\OC)cn3)c2)nc1.Cl
> 6
CC(C)Oc1ccc(NC(=N)c2ccccn2)cc1-c1cc(Cl)cc(-c2ccccc2)c1
< 1
Cl.Cl.N=C(N)c1ccc(-c2cc(N)cc(-c3ccc(C(=N)N)cc3)c2)cc1
> 39800

// below: selectivity ratio requested for another compound
Note selectivity ratio for the compound shown: `CC(C)Oc1cc(NC(=N)c2ccccn2)ccc1-c1cc(Cl)cc(-c2ccccc2)c1`
< 1
